# Species on record: Homo sapiens
# ASSAY NOTES: Selectivity index, ratio of IC50 for human MAO-B to IC50 for human MAO-A
ASSAY METRIC: Ratio IC50

(a) N#Cc1ccc(-c2csc(N/N=C/c3ccc(N4CCOCC4)cc3)n2)cc1
(b) Clc1ccc(-c2csc(N/N=C/c3ccc(N4CCCC4)cc3)n2)c(Cl)c1
(c) Fc1ccc(-c2csc(N/N=C/c3ccc(N4CCOCC4)cc3)n2)cc1
(d) Fc1ccc(-c2csc(N/N=C/c3ccc(N4CCCC4)cc3)n2)cc1
(e) Fc1ccc(-c2csc(N/N=C/c3ccc(N4CCCC4)cc3)n2)c(F)c1
Exam item: Rank the items above by Ratio IC50, largest value first. Answer format: the labels, in the requested order.
Marked response: c, d, e, b, a
(c: 1210, d: 32.5, e: 9.03, b: 1.26, a: 0.795)

(1) Clc1ccc(-c2csc(N/N=C/c3ccc(N4CCCC4)cc3)n2)cc1
(2) Clc1ccc(-c2csc(N/N=C/c3ccc(N4CCOCC4)cc3)n2)cc1
(3) Fc1ccc(-c2csc(N/N=C/c3ccc(N4CCOCC4)cc3)n2)c(F)c1
(4) N#Cc1ccc(-c2csc(N/N=C/c3ccc(N4CCCC4)cc3)n2)cc1
(5) Clc1ccc(-c2csc(N/N=C/c3ccc(N4CCOCC4)cc3)n2)c(Cl)c1
Exam item: Please list these in order of increasing Ratio IC50. Thank you! Answer format: the labels, in the requested order.
Marked response: 4, 5, 1, 2, 3

---

Let's go through some pIC50 measurements on Amine oxidase [flavin-containing] B (Homo sapiens) together.
pIC50: −log10 of the molar value.
ASSAY METRIC: pIC50

(1) Clc1ccc(-c2csc(N/N=C/c3ccc(N4CCCC4)cc3)n2)cc1
(2) Fc1ccc(-c2csc(N/N=C/c3ccc(N4CCOCC4)cc3)n2)cc1
(3) N#Cc1ccc(-c2csc(N/N=C/c3ccc(N4CCOCC4)cc3)n2)cc1
(4) Clc1ccc(-c2csc(N/N=C/c3ccc(N4CCOCC4)cc3)n2)c(Cl)c1
Exam item: Rank the items above by pIC50, largest value first. Answer format: the labels, in the requested order.
Marked response: 2, 3, 4, 1
(2: 4.84, 3: 4.37, 4: 3.87, 1: 3.12)

---

# Test system: NIH3T3
# ASSAY NOTES: Cytotoxicity against mouse NIH/3T3 cells by MTT assay
# Type: cell-based
pIC50: −log10 of the molar value.
ASSAY METRIC: pIC50

[
  {
    "SMILES STR": "Fc1ccc(-c2csc(N/N=C/c3ccc(N4CCOCC4)cc3)n2)cc1",
    "ASSAY METRIC": "pIC50",
    "RESULT": "< 3.00"
  }
]

# context switch: different compound, same pIC50
Exam item: Any idea what its pIC50 is? The compound is Fc1ccc(-c2csc(N/N=C/c3ccc(N4CCOCC4)cc3)n2)c(F)c1
Marked response: < 3.00

---

# TESTED TARGET: Amine oxidase [flavin-containing] A (Homo sapiens, UniProt P21397)
# Sequence (P21397 whole entry): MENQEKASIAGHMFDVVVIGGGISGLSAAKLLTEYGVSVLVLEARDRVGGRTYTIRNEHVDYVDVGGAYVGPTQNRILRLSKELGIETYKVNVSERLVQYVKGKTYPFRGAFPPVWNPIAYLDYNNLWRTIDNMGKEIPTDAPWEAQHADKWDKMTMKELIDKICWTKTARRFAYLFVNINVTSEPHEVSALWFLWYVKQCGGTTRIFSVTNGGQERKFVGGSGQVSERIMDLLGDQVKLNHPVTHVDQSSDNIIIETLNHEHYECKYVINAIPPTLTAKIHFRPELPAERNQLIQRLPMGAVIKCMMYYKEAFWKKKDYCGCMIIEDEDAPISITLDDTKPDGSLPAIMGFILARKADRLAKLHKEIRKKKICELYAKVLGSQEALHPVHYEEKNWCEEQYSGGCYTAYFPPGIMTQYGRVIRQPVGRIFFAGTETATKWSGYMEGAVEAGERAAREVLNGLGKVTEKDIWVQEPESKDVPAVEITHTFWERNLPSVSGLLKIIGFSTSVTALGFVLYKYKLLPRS
pIC50: −log10 of the molar value.
ASSAY METRIC: pIC50

[
  {
    "SMILES STR": "Clc1ccc(-c2csc(N/N=C/c3ccc(N4CCOCC4)cc3)n2)c(Cl)c1",
    "ASSAY METRIC": "pIC50",
    "NUMERIC RESULT": 4.07
  },
  {
    "SMILES STR": "C(=N\\Nc1nc(-c2ccccc2)cs1)/c1ccc(N2CCCC2)cc1",
    "ASSAY METRIC": "pIC50",
    "NUMERIC RESULT": 4.59
  },
  {
    "SMILES STR": "Fc1ccc(-c2csc(N/N=C/c3ccc(N4CCOCC4)cc3)n2)c(F)c1",
    "ASSAY METRIC": "pIC50",
    "NUMERIC RESULT": 7.96
  },
  {
    "SMILES STR": "Brc1ccc(-c2csc(N/N=C/c3ccc(N4CCCC4)cc3)n2)cc1",
    "ASSAY METRIC": "pIC50",
    "NUMERIC RESULT": 4.21
  },
  {
    "SMILES STR": "Cc1ccc(-c2csc(N/N=C/c3ccc(N4CCOCC4)cc3)n2)cc1",
    "ASSAY METRIC": "pIC50",
    "NUMERIC RESULT": 4.98
  },
  {
    "SMILES STR": "C(=N\\Nc1nc(-c2ccccc2)cs1)/c1ccc(N2CCOCC2)cc1",
    "ASSAY METRIC": "pIC50",
    "NUMERIC RESULT": 4.94
  }
]

(P) Clc1ccc(-c2csc(N/N=C/c3ccc(N4CCCC4)cc3)n2)cc1
(Q) Fc1ccc(-c2csc(N/N=C/c3ccc(N4CCCC4)cc3)n2)cc1
Exam item: Pick one, P or Q : lowest reported pIC50. # reply format: chosen label
Marked response: P
(P: 4.35, Q: 4.88)

---

# Species on record: Homo sapiens
# ASSAY NOTES: Selectivity index, ratio of IC50 for human MAO-B to IC50 for human MAO-A
ASSAY METRIC: Ratio IC50

Example results:
[
  {
    "SMILES STR": "Cc1ccc(-c2csc(N/N=C/c3ccc(N4CCCC4)cc3)n2)cc1",
    "Ratio IC50": "> 4.99"
  },
  {
    "SMILES STR": "Cc1ccc(-c2csc(N/N=C/c3ccc(N4CCOCC4)cc3)n2)cc1",
    "Ratio IC50": "> 96.2"
  },
  {
    "SMILES STR": "Brc1ccc(-c2csc(N/N=C/c3ccc(N4CCCC4)cc3)n2)cc1",
    "Ratio IC50": "> 16.3"
  },
  {
    "SMILES STR": "C(=N\\Nc1nc(-c2ccccc2)cs1)/c1ccc(N2CCCC2)cc1",
    "Ratio IC50": "> 39.1"
  }
]

Exam item: Any idea what its Ratio IC50 is? The compound is C(=N\Nc1nc(-c2ccccc2)cs1)/c1ccc(N2CCOCC2)cc1
Marked response: > 87.8

Exam item: Any idea what its Ratio IC50 is? The compound is Brc1ccc(-c2csc(N/N=C/c3ccc(N4CCOCC4)cc3)n2)cc1
Marked response: > 6.84

---

// IC50 lookup, one value per entry
Target chain: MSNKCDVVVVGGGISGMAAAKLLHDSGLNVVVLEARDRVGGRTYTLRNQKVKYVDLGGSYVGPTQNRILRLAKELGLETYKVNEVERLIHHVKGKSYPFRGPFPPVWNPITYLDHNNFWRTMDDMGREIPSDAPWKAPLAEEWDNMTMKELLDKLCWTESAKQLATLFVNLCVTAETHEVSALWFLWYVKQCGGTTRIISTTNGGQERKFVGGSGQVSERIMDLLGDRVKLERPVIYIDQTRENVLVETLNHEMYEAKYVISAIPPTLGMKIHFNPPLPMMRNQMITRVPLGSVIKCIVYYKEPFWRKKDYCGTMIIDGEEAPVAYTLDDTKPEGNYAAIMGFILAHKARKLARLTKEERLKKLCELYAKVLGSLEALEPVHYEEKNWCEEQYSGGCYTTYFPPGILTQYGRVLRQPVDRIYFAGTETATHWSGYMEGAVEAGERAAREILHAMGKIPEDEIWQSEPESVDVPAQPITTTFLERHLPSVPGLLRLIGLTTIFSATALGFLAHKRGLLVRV

[
  {
    "SMILES STR": "C(=N\\Nc1nc(-c2ccccc2)cs1)/c1ccc(N2CCCC2)cc1",
    "IC50": "> 1 mM"
  }
]

Exam item: Any idea what its IC50 is? The molecule is Brc1ccc(-c2csc(N/N=C/c3ccc(N4CCCC4)cc3)n2)cc1
Marked response: > 1 mM

Exam item: Any idea what its IC50 is? The molecule is Cc1ccc(-c2csc(N/N=C/c3ccc(N4CCOCC4)cc3)n2)cc1
Marked response: > 1 mM
